Target: Sodium channel protein type 10 subunit alpha (Rattus norvegicus, UniProt Q62968)
Sequence (Q62968 whole entry): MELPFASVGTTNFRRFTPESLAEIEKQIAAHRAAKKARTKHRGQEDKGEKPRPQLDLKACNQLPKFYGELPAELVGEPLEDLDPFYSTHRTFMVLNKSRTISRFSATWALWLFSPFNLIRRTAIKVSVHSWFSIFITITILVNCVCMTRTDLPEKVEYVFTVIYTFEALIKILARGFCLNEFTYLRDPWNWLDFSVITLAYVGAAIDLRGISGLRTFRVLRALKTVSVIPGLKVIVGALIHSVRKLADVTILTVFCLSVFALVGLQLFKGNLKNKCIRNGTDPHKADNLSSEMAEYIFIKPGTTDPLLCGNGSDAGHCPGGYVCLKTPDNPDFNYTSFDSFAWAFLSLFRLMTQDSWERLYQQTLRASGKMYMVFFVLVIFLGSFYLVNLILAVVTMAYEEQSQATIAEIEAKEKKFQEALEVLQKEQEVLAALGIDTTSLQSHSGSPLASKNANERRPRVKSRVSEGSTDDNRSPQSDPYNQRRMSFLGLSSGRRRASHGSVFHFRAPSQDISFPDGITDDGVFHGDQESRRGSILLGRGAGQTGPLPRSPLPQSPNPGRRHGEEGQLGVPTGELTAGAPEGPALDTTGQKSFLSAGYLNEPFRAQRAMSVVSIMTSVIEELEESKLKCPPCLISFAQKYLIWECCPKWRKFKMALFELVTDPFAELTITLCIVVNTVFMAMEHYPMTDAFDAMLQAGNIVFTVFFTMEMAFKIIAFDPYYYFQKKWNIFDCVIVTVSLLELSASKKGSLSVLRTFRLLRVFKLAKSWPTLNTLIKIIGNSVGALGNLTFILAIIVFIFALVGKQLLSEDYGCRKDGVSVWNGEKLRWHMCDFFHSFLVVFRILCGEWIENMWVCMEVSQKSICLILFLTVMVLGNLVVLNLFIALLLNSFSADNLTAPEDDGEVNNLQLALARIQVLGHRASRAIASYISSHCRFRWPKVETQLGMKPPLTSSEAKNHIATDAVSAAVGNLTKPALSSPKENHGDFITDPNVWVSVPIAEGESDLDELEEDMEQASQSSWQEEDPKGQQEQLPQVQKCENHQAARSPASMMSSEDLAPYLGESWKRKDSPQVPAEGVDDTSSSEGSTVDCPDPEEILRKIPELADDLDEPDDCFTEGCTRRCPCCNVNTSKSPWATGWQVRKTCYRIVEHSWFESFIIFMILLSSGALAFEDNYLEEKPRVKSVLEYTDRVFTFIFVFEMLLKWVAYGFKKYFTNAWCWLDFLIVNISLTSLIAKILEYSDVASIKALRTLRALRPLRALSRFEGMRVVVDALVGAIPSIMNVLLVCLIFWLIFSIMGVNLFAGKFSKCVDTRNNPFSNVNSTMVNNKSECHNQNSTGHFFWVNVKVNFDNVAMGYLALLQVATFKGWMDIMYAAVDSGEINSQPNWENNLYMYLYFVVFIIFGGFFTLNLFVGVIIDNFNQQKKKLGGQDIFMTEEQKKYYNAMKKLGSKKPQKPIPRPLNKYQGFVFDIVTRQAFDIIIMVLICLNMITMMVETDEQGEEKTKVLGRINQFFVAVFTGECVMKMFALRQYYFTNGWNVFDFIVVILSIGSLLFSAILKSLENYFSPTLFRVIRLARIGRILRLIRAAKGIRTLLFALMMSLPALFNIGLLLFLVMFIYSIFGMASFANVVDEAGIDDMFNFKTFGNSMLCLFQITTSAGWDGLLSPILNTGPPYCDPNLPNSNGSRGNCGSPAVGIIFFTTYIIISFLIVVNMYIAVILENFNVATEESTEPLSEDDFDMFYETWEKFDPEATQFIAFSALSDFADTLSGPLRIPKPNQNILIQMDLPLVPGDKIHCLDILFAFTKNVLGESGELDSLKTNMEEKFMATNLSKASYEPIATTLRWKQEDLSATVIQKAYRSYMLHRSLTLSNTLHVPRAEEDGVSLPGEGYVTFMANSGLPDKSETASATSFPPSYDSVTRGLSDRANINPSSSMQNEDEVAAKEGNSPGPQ
Test: Inhibition of NaV1.8 in rat DRG neurons assessed as reduction in tetrodotoxin-resistant sodium channel currents at holding potential of -140 mV by manual patch clamp electrophysiology assay
VALUE KIND: IC50

In [3]: df
Out[3]:
                                smiles_text  experimental_result
0  N#Cc1cc(C(F)(F)F)ccc1N1CCOc2cc(S(=O)(=O)Nc3nccs3)c(F)cc21              > 30 µM

* * *

Test system: Plasma
Assay: Plasma concentration in C57BL/6 mouse model of histamine-induced pruritus at 60 mg/kg, po
Format: ADME, organism-based
Conditions: in vivo
VALUE KIND: concentration (µM)

In [3]: df
Out[3]:
                                smiles_text  unit_annotation  experimental_result
0  N#Cc1cc(C(F)(F)F)ccc1N1CCOc2cc(S(=O)(=O)Nc3nccs3)c(F)cc21               µM                  109
